Where do the numbers come from? From ChEMBL document CHEMBL3784931.

test-details: Terminal half life in Wistar rat lung at 10 mg/kg, po after 0.5 to 72 hrs by HPLC analysis
Format: ADME, organism-based
test-context: read-out: beta t1/2 (converted)
measured-quantity: half-life (h)

smiles-text | units-of-measure | quantitative-readout
CCCCc1nc(Cl)c(C(=O)O)n1Cc1ccc(-c2ccccc2-c2noc(=O)[nH]2)cc1 | h | 12.4

* * *

test-details: Cmax in Wistar rat brain at 10 mg/kg, po after 0.5 to 72 hrs by HPLC analysis
Format: ADME, organism-based
Design: dose 10 mg/kg, route oral
measured-quantity: Cmax (ng/g)

smiles-text | quantitative-readout
CCCCc1nc(Cl)c(C(=O)O)n1Cc1ccc(-c2ccccc2-c2noc(=O)[nH]2)cc1 | 5.8

* * *

test-details: Acute toxicity in ICR mouse assessed as mortality at 1600 mg/kg, ig administered daily for 2 weeks measured during compound dosing
Type: organism-based
test-context: in vivo, po

smiles-text | mortality at 336 h [%]
CCCCc1nc(Cl)c(C(=O)O)n1Cc1ccc(-c2ccccc2-c2noc(=O)[nH]2)cc1 | 10

* * *

test-details: Tmax in Wistar rat lung at 10 mg/kg, po after 0.5 to 72 hrs by HPLC analysis
Format: ADME, organism-based
measured-quantity: Tmax

smiles-text | result
CCCCc1nc(Cl)c(C(=O)O)n1Cc1ccc(-c2ccccc2-c2noc(=O)[nH]2)cc1 | 1 h

* * *

test-details: Acute toxicity in ICR mouse assessed as mortality at 6742.38 mg/kg, ig administered daily for 2 weeks measured during compound dosing
Type: organism-based
test-context: in vivo, po
measured-quantity: mortality at 336 h (%)

smiles-text | quantitative-readout
CCCCc1nc(Cl)c(C(=O)O)n1Cc1ccc(-c2ccccc2-c2noc(=O)[nH]2)cc1 | 100

* * *

Each item that follows carries a reported pKi.
test-target: Type-1 angiotensin II receptor A (Rattus norvegicus)
Sequence (P25095 whole entry): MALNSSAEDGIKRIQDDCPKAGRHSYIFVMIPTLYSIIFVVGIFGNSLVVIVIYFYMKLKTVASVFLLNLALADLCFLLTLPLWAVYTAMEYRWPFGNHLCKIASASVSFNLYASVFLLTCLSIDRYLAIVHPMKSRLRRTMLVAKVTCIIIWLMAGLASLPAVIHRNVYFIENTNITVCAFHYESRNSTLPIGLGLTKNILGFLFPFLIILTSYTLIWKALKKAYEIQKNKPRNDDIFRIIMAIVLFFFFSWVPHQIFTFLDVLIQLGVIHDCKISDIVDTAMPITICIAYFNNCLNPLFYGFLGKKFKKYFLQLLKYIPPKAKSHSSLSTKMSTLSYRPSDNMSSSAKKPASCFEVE
test-details: Displacement of [125I]-Ang II from Angiotensin 2 type-1A receptor in rat vascular smooth muscle cells after 150 mins by gamma counting method
pKi: −log10 of the molar value.

smiles-text | test-target | pKi
CCCCc1nc(Cl)c(CO)n1Cc1ccc(-c2ccccc2-c2noc(=O)[nH]2)cc1 | Type-1 angiotensin II receptor A (Rattus norvegicus) | 8.37
CCCCc1nc(Cl)c(C(=O)O)n1Cc1ccc(-c2ccccc2-c2noc(=O)[nH]2)cc1 | Type-1 angiotensin II receptor A (Rattus norvegicus) | 8.64
CCCCc1nc(Cl)c(C=O)n1Cc1ccc(-c2ccccc2-c2noc(=O)[nH]2)cc1 | Type-1 angiotensin II receptor A (Rattus norvegicus) | 8.50

* * *

test-details: Tmax in Wistar rat brain at 10 mg/kg, po after 0.5 to 72 hrs by HPLC analysis
Type: ADME, organism-based

smiles-text | Tmax (h)
CCCCc1nc(Cl)c(C(=O)O)n1Cc1ccc(-c2ccccc2-c2noc(=O)[nH]2)cc1 | 2

* * *

test-details: Cmax in Wistar rat spleen at 10 mg/kg, po after 0.5 to 72 hrs by HPLC analysis
Assay type: ADME, organism-based
Parameters: dose 10 mg/kg, route oral

smiles-text | Cmax, ng/g
CCCCc1nc(Cl)c(C(=O)O)n1Cc1ccc(-c2ccccc2-c2noc(=O)[nH]2)cc1 | 8.84

* * *

test-details: Elimination rate constant in Wistar rat lung at 10 mg/kg, po after 0.5 to 72 hrs by HPLC analysis
Type: ADME, organism-based

smiles-text | k el
CCCCc1nc(Cl)c(C(=O)O)n1Cc1ccc(-c2ccccc2-c2noc(=O)[nH]2)cc1 | 1.64e-05 s⁻¹
